# Tested on: Rh18 complex spheroid viability, percent test/control
# runDescription: Anticancer human tumor Rh18 cell line growth inhibition [Asc]; active = viability on the fitted dose curve at most 10% of control; inactive = the rest;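 also: spheroids exposed to compound for 7 days; 100% = DMSO vehicle control wells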
# condition: second compound 1 µM; first compound 0.316 µM
Labels: active, inactive

{"compound": "C#Cc1c(F)ccc2cc(O)cc(-c3ncc4c(N5CC6CCC(C5)N6)nc(OCC56CCCN5CC(F)C6)nc4c3F)c12 (stereo not drawn) + CNC(C)C(=O)NC1CN(S(=O)(=O)c2cccc(S(=O)(=O)N3CCC4CCC(C(=O)NC(c5ccccc5)c5ccccc5)N4C(=O)C(NC(=O)C(C)NC)C3)c2)CCC2CCC(C(=O)NC(c3ccccc3)c3ccccc3)N2C1=O", "assaySystem": "Rh18 complex spheroid viability, percent test/control", "classAssignment": "inactive"}
{"compound": "CNC(C)C(=O)NC1CN(S(=O)(=O)c2cccc(S(=O)(=O)N3CCC4CCC(C(=O)NC(c5ccccc5)c5ccccc5)N4C(=O)C(NC(=O)C(C)NC)C3)c2)CCC2CCC(C(=O)NC(c3ccccc3)c3ccccc3)N2C1=O (stereo not drawn) + Cc1c(S(C)(=O)=O)c(-c2cc(F)cc(N3CCN(c4ccc(NS(=O)(=O)c5ccc(NC(CCN6CCC(C(=O)OCCCP(=O)(O)O)CC6)CSc6ccccc6)c(S(=O)(=O)C(F)(F)F)c5)cc4)CC3)c2)c(-c2ccc(Cl)cc2)n1C(C)C", "assaySystem": "Rh18 complex spheroid viability, percent test/control", "classAssignment": "active"}
{"compound": "O=C(c1cc(Cc2n[nH]c(=O)c3ccccc23)ccc1F)N1CCN(C(=O)C2CC2)CC1 + CNC(C)C(=O)NC1CN(S(=O)(=O)c2cccc(S(=O)(=O)N3CCC4CCC(C(=O)NC(c5ccccc5)c5ccccc5)N4C(=O)C(NC(=O)C(C)NC)C3)c2)CCC2CCC(C(=O)NC(c3ccccc3)c3ccccc3)N2C1=O", "assaySystem": "Rh18 complex spheroid viability, percent test/control", "classAssignment": "inactive"}

----------
# Test system: Rh18 complex spheroid viability, percent test/control
# runDescription: Anticancer human tumor Rh18 cell line growth inhibition [Asc]; active = viability on the fitted dose curve at most 10% of control; inactive = the rest;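 also: spheroids exposed to compound for 7 days; 100% = DMSO vehicle control wells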
# condition: second compound 0.1 µM; first compound 0.0316 µM
Classes used: 1.0 = active, 0.0 = inactive

{"compound": "CNC(C)C(=O)NC1CN(S(=O)(=O)c2cccc(S(=O)(=O)N3CCC4CCC(C(=O)NC(c5ccccc5)c5ccccc5)N4C(=O)C(NC(=O)C(C)NC)C3)c2)CCC2CCC(C(=O)NC(c3ccccc3)c3ccccc3)N2C1=O (stereo not given) + Cc1c(S(C)(=O)=O)c(-c2cc(F)cc(N3CCN(c4ccc(NS(=O)(=O)c5ccc(NC(CCN6CCC(C(=O)OCCCP(=O)(O)O)CC6)CSc6ccccc6)c(S(=O)(=O)C(F)(F)F)c5)cc4)CC3)c2)c(-c2ccc(Cl)cc2)n1C(C)C", "assaySystem": "Rh18 complex spheroid viability, percent test/control", "classAssignment": 1.0}
{"compound": "O=C(c1cc(Cc2n[nH]c(=O)c3ccccc23)ccc1F)N1CCN(C(=O)C2CC2)CC1 + CNC(C)C(=O)NC1CN(S(=O)(=O)c2cccc(S(=O)(=O)N3CCC4CCC(C(=O)NC(c5ccccc5)c5ccccc5)N4C(=O)C(NC(=O)C(C)NC)C3)c2)CCC2CCC(C(=O)NC(c3ccccc3)c3ccccc3)N2C1=O", "assaySystem": "Rh18 complex spheroid viability, percent test/control", "classAssignment": 0.0}
{"compound": "COc1c(OCCCN2CCOCC2)ccc2c3n(c(=NC(=O)c4cnc(N)nc4)nc12)CCN3 + CNC(C)C(=O)NC1CN(S(=O)(=O)c2cccc(S(=O)(=O)N3CCC4CCC(C(=O)NC(c5ccccc5)c5ccccc5)N4C(=O)C(NC(=O)C(C)NC)C3)c2)CCC2CCC(C(=O)NC(c3ccccc3)c3ccccc3)N2C1=O", "assaySystem": "Rh18 complex spheroid viability, percent test/control", "classAssignment": 0.0}
{"compound": "C=C(F)C(=O)N1CCN(c2nc(OCC3CCCN3C)nc3c2CCN(c2cccc4cccc(Cl)c24)C3)CC1CC#N (stereo not given) + Cc1c(S(C)(=O)=O)c(-c2cc(F)cc(N3CCN(c4ccc(NS(=O)(=O)c5ccc(NC(CCN6CCC(C(=O)OCCCP(=O)(O)O)CC6)CSc6ccccc6)c(S(=O)(=O)C(F)(F)F)c5)cc4)CC3)c2)c(-c2ccc(Cl)cc2)n1C(C)C", "assaySystem": "Rh18 complex spheroid viability, percent test/control", "classAssignment": 0.0}
{"compound": "C=C(F)C(=O)N1CCN(c2nc(OCC3CCCN3C)nc3c2CCN(c2cccc4cccc(Cl)c24)C3)CC1CC#N (stereo not given) + CNC(C)C(=O)NC1CN(S(=O)(=O)c2cccc(S(=O)(=O)N3CCC4CCC(C(=O)NC(c5ccccc5)c5ccccc5)N4C(=O)C(NC(=O)C(C)NC)C3)c2)CCC2CCC(C(=O)NC(c3ccccc3)c3ccccc3)N2C1=O", "assaySystem": "Rh18 complex spheroid viability, percent test/control", "classAssignment": 0.0}
